target: F508del in NIH 3T3 cells (Homo sapiens, UniProt P13569, DEL508-508); construct: expressed in transfected cells; test: 3T3 assay: membrane potential optical assay for F508del correction; type: cell-based, mouse; conditions: NIH3T3, F508del NIH 3T3 cells; efficacy compared to lumacaftor in combination with acutely added 300 nM Ivacaftor; read-out: 3T3 Max Activity (%)
Sequence (P13569 with tags, fused parts or gaps DEL508-508): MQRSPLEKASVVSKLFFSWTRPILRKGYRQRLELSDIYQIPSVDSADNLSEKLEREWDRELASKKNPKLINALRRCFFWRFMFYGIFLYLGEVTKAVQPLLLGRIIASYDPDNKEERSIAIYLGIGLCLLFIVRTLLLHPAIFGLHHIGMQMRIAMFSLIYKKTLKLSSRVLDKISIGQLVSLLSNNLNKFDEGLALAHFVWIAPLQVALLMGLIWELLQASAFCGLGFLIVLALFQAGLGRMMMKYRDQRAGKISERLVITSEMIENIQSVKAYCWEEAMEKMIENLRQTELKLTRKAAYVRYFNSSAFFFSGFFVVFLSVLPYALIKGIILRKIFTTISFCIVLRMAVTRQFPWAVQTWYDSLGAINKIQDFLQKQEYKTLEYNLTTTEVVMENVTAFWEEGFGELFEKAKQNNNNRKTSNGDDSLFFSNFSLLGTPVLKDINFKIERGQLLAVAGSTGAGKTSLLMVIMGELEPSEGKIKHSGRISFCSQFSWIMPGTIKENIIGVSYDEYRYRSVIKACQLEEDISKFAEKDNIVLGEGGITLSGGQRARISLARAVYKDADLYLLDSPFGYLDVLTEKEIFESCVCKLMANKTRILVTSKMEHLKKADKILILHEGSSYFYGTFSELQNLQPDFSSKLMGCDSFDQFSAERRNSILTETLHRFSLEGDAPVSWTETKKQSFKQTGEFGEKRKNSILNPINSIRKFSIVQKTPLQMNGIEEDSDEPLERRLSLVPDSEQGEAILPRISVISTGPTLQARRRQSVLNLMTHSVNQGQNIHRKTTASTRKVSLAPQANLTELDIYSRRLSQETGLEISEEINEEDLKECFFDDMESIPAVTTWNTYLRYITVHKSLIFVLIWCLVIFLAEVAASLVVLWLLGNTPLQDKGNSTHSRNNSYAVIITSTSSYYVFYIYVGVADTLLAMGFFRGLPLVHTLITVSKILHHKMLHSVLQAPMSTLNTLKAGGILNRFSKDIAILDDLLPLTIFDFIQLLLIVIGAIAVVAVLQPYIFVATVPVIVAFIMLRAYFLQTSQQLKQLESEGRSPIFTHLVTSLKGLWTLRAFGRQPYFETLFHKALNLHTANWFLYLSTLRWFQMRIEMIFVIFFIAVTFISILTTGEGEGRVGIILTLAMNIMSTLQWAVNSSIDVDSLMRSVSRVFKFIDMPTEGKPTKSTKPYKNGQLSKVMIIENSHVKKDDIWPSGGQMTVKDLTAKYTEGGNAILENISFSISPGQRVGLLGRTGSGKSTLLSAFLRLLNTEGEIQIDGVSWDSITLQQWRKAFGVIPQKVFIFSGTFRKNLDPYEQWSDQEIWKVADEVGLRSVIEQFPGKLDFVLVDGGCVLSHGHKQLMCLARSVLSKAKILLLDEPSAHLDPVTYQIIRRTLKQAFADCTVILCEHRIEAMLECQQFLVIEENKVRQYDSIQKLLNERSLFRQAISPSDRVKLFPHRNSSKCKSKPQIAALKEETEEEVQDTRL
Measured Quantity: Emax

* Cc1cccc(C)c1-c1cc2nc(n1)NS(=O)(=O)c1cccc(c1)NC(=O)c1cc(ccc1N1CCCCC1)O2 | > 60%
* CNC1CCCCC1N(C)c1ccc2cc1C(=O)Nc1cccc(c1)S(=O)(=O)Nc1nc(cc(-c3c(C)cccc3C)n1)O2 (stereo not shown) | 30 to 60%
* Cc1cccc(C)c1-c1cc2nc(n1)NS(=O)(=O)c1cccc(c1)NC(=O)c1cccc(c1)O2 | > 60%
* Cc1cccc(C)c1-c1cc2nc(n1)NS(=O)(=O)c1cccc(c1)NC(=O)[C@H]1C[C@@H](CN(CCC(C)(C)C)C1)O2 | > 60%
* Cc1nn(C)c(C)c1-c1cc2nc(n1)NS(=O)(=O)c1cccc(c1)NC(=O)c1cccc(c1)O2 | < 30%
* Cc1cccc(C)c1-c1cc2nc(n1)NS(=O)(=O)c1cccc(c1)NC(=O)[C@H]1CNC[C@@H](C1)O2 | 30 to 60%
* Cc1cccc(C)c1-c1cc2nc(n1)NS(=O)(=O)c1cccc(c1)NC(=O)c1ccc(Cl)c(c1)O2 | > 60%

###

target: F508del in NIH 3T3 cells (Homo sapiens, UniProt P13569, DEL508-508); construct: expressed in transfected cells; experiment: 3T3 assay: membrane potential optical assay for F508del correction; format: cell-based, mouse; details: NIH3T3, F508del NIH 3T3 cells; efficacy compared to lumacaftor in combination with acutely added 300 nM Ivacaftor; read-out: 3T3 Max Activity (%)
Measured Quantity: Emax

* Cc1cccc(C)c1-c1cc2nc(n1)NS(=O)(=O)c1cccc(c1)NC(=O)[C@@H]1C[C@@H](CN(CCCCC(C)(C)C)C1)O2 | > 60%
* Cc1cccc(C)c1-c1cc2nc(n1)NS(=O)(=O)c1cccc(c1)NC(=O)[C@@H]1C[C@@H](CN(C(=O)OC(C)(C)C)C1)O2 (single isomer, unassigned) | > 60%
* Cc1cccc(C)c1-c1cc2nc(n1)NS(=O)(=O)c1cccc(c1)NC(=O)[C@H]1C[C@H](CN(CCC(C)(C)C)C1)O2 | > 60%

###

biological target: CFTR-mediated chloride transport in human intestinal epithelial enteroid cells (Homo sapiens, UniProt P13569); assay: Membrane potential dye, Enteroid Assay A; type: cell-based; details: % of chloride transport of triple combination control (3 μM N-[(6-amino-2-pyridyl)sulfonyl]-6-(3-fluoro-5-isobutoxy-phenyl)-2-[(4S)-2,2,4-trimethylpyrrolidin-1-yl]pyridine-3-carboxamide, 3 μM tezacaftor, 300 nM acute ivacaftor)
Measured Quantity: Ent. A Max Activity (%)

* Cc1cccc(C)c1-c1cc2nc(n1)NS(=O)(=O)c1cccc(c1)NC(=O)[C@@H]1C[C@@H](CN(C(=O)C3(C(F)(F)F)CC3)C1)O2 [Compound 36] | +++ (+++ is >60%)
* Cc1cccc(C)c1-c1cc2nc(n1)NS(=O)(=O)c1cccc(c1)NC(=O)[C@@H]1C[C@@H](CN(C(=O)NC(C)(C)C)C1)O2 [Compound 44] | +++ (+++ is >60%)

###

biological target: F508del in NIH 3T3 cells (Homo sapiens, UniProt P13569, DEL508-508); construct: expressed in transfected cells; assay: 3T3 assay: membrane potential optical assay for F508del correction; format: cell-based, mouse; conditions: NIH3T3, F508del NIH 3T3 cells; efficacy compared to lumacaftor in combination with acutely added 300 nM Ivacaftor; read-out: 3T3 Max Activity (%)
Measured Quantity: Emax

* Cc1cccc(C)c1-c1cc2nc(n1)NS(=O)(=O)c1cccc(c1)NC(=O)[C@@H]1C[C@@H](CN(C(=O)CC(C)(C)C)C1)O2 | > 60%
* Cc1cccc(C)c1-c1cc2nc(n1)NS(=O)(=O)c1cccc(c1)NC(=O)c1cc(ccc1NC1CCCCC1N)O2 (stereo not drawn) | > 60%
* Cc1cccc(C)c1-c1cc2nc(n1)NS(=O)(=O)c1cccc(c1)NC(=O)c1cccc(c1)CCO2 | 30 to 60%
* Cc1cccc(C)c1-c1cc2nc(n1)NS(=O)(=O)c1cccc(c1)NC(=O)[C@H]1C[C@H](CN(C(=O)OC(C)(C)C)C1)O2 (single isomer, unassigned) | 30 to 60%
* Cc1cccc(C)c1-c1cc2nc(n1)NS(=O)(=O)c1cccc(c1)NC(=O)[C@@H]1C[C@@H](CN(CCC(C)(C)C)C1)O2 | > 60%
* Cc1ccccc1-c1cc2nc(n1)NS(=O)(=O)c1cccc(c1)N(C)C(=O)c1ccc(cc1)O2 | < 30%

###

target: CFTR-mediated chloride transport in human intestinal epithelial enteroid cells (Homo sapiens); assay: Membrane potential dye, Enteroid Assay A; format: cell-based; conditions: enteroid cells, 18-24 hours incubation, acute 10 μM forskolin and 300 nM ivacaftor; read-out: Ent. A EC50
Measured Quantity: EC50

- Cc1cccc(C)c1-c1cc2nc(n1)NS(=O)(=O)c1cccc(c1)NC(=O)[C@@H]1C[C@@H](CN(S(=O)(=O)CC(C)(C)C)C1)O2: < 1000 nM
- Cc1cccc(C)c1-c1cc2nc(n1)NS(=O)(=O)c1cccc(c1)NC(=O)[C@@H]1C[C@@H](CN(C3CCCCC3)C1)O2: 1000 to 3000 nM
- Cc1cccc(C)c1-c1cc2nc(n1)NS(=O)(=O)c1cccc(c1)NC(=O)C1CN(C(=O)OC(C)(C)C)CCC1O2 (stereo not drawn): 1000 to 3000 nM
- Cc1cccc(C)c1-c1cc2nc(n1)NS(=O)(=O)c1cccc(c1)NC(=O)C1CNCC(C1)O2 (stereo not drawn) [Compound 51]: 3000 to 30000 nM
- Cc1cccc(C)c1-c1cc2nc(n1)NS(=O)(=O)c1cncc(c1)NC(=O)C1CC(CN(C(=O)OC(C)(C)C)C1)O2 (racemic): < 1000 nM
- Cc1cccc(C)c1-c1cc2nc(n1)NS(=O)(=O)c1cccc(c1)NC(=O)[C@@H]1C[C@@H](CN(CCC(C)(C)C)C1)O2: < 1000 nM

###

biological target: F508del in NIH 3T3 cells (Homo sapiens, UniProt P13569, DEL508-508); construct: expressed in transfected cells; experiment: 3T3 assay: membrane potential optical assay for F508del correction; format: cell-based, mouse; conditions: F508del NIH 3T3 cells, compound incubation 18-24 hours at 37° C., forskolin activation; read-out: 3T3 EC50
Below: a set of entries, each annotated with reported EC50.
Measured Quantity: EC50

• Cc1cccc(C)c1-c1cc2nc(n1)NS(=O)(=O)c1cccc(c1)NC(=O)Cc1cccc(c1)O2 = 1000 to 3000 nM
• Cc1cc2cc(c1)C(=O)Nc1cccc(c1)S(=O)(=O)Nc1nc(cc(-c3c(C)cccc3C)n1)O2 = < 1000 nM
• O=C1Nc2cccc(c2)S(=O)(=O)Nc2nc(cc(-c3cccc4ccccc34)n2)Oc2cccc1c2 = < 1000 nM
• Cc1cccc(C)c1-c1cc2nc(n1)NS(=O)(=O)c1cccc(c1)NC(=O)c1cc(ccc1NC1CCCC(N)C1)O2 (centres unmarked) = 3000 to 30000 nM
• Cc1cccc(C)c1-c1cc2nc(n1)NS(=O)(=O)c1cccc(c1)NC(=O)c1cc(ccc1NCCN)O2 = 1000 to 3000 nM
• COCCN1C[C@@H]2C[C@H](C1)C(=O)Nc1cccc(c1)S(=O)(=O)Nc1nc(cc(-c3c(C)cccc3C)n1)O2 = < 1000 nM
• Cc1cccc(C)c1-c1cc2nc(n1)NS(=O)(=O)c1cccc(c1)NC(=O)C1CC(CN1C(=O)OC(C)(C)C)O2 (centres unmarked) = 1000 to 3000 nM
• Cc1cccc(C)c1-c1cc2nc(n1)NS(=O)(=O)c1cccc(c1)NC(=O)CCCCCO2 = < 1000 nM
• Cc1cccc(C)c1-c1cc2nc(n1)NS(=O)(=O)c1cccc(c1)NC(=O)CCc1cccc(c1)O2 = < 1000 nM
• Cc1cccc(C)c1-c1cc2nc(n1)NS(=O)(=O)c1cccc(c1)NC(=O)[C@@H]1C[C@@H](CN(C(=O)C(C)(C)C)C1)O2 = < 1000 nM
• Cc1cccc(C)c1-c1cc2nc(n1)NS(=O)(=O)c1cccc(c1)NC(=O)[C@H]1C[C@@H](CN(CCC(C)(C)C)C1)O2 = < 1000 nM
• Cc1cccc(C)c1-c1cc2nc(n1)NS(=O)(=O)c1cccc(c1)NC(=O)[C@H]1CCC[C@H](C1)O2 (single isomer, unassigned) [Compound 70] = 1000 to 3000 nM
• Cc1cccc(C)c1-c1cc2nc(n1)NS(=O)(=O)c1cccc(c1)NC(=O)C1CC(CN(C(=O)OC(C)(C)C)C1)O2 (centres unmarked) [Compound 124] = 1000 to 3000 nM
• Cc1cccc(C)c1-c1cc2nc(n1)NS(=O)(=O)c1cccc(c1)NC(=O)CCCc1cccc(c1)O2 = < 1000 nM
